Tested on: JVM-3;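 further: growth inhibition of human JVM-3 cells, read out with a cell viability assay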
ASSAY METHOD TEXT: cells
Assay type: functional, cell-based
EXPERIMENTAL SETUP: Homo sapiens
Description: SANGER: Inhibition of human JVM-3 cell growth in a cell viability assay.
Consider the following molecules; for each one, report its IC50.

INPUT: May I ask what IC50 has been recorded for CCOc1nc(NC(=O)Cc2cc(OC)ccc2OC)cc(N)c1C#N ?
OUTPUT: > 10 µM

INPUT: Quick check: IC50 of C=C1C(=O)O[C@@H]2C3O[C@]3(C)CC/C=C(\C)CC[C@@H]12 (some centres undefined) ?
OUTPUT: > 5 µM

INPUT: Which IC50 value is on record for CNC(=O)c1cc(Oc2ccc(NC(=O)Nc3ccc(Cl)c(C(F)(F)F)c3)cc2)ccn1 ?
OUTPUT: > 4 µM

INPUT: If you can, please state the reported IC50 value of O=c1cc(-c2cccc3c2Sc2ccccc2S3)oc(N2CCOCC2)c1 .
OUTPUT: > 10 µM

INPUT: Please look up its IC50: Cc1cc([C@@H](C)Nc2ccccc2C(=O)O)c2nc(N3CCOCC3)cc(=O)n2c1
OUTPUT: > 5.12 µM

INPUT: Any idea what its IC50 is? The molecule is CN1CCN(CCOc2cc(OC3CCOCC3)c3c(Nc4c(Cl)ccc5c4OCO5)ncnc3c2)CC1
OUTPUT: > 2 µM

INPUT: GET /values?readout=IC50&item= O=C(/C=C/c1ccccc1)NC(NC(=S)Nc1cccc2cccnc12)C(Cl)(Cl)Cl (centres undefined)
OUTPUT: > 16 µM

INPUT: Form field: reported IC50 of CCC1=C[C@@H]2CN(C1)Cc1c([nH]c3ccccc13)[C@@](C(=O)OC)(c1cc3c(cc1OC)N(C)[C@H]1[C@@](O)(C(=O)OC)[C@H](OC(C)=O)[C@]4(CC)C=CCN5CC[C@]31[C@@H]54)C2
OUTPUT: > 0.064 µM

INPUT: Look up IC50 for this molecule: CO[C@H]1C[C@@H]2CC[C@@H](C)[C@@](O)(O2)C(=O)C(=O)N2CCCC[C@H]2C(=O)O[C@H]([C@H](C)C[C@@H]2CC[C@@H](O)[C@H](OC)C2)CC(=O)[C@H](C)/C=C(\C)[C@@H](O)[C@@H](OC)C(=O)[C@H](C)C[C@H](C)/C=C/C=C/C=C/1C
OUTPUT: > 0.1 µM

---

Test system: 8505C
ASSAY METHOD TEXT: cells
Type: functional, cell-based, Homo sapiens
EXPERIMENTAL SETUP: Homo sapiens, 8505C
Description: SANGER: Inhibition of human 8505C cell growth in a cell viability assay.
Please go through the items and note down their pIC50.
Keep in mind that pIC50 stands for -log10 of concentration in molar terms.

INPUT: Which pIC50 value belongs to Cn1cncc1[C@@](N)(c1ccc(Cl)cc1)c1ccc2c(c1)c(-c1cccc(Cl)c1)cc(=O)n2C [TIPIFARNIB] ?
OUTPUT: 6.37

INPUT: Please look up its pIC50: CC(=O)O[C@@]12CO[C@@H]1C[C@H](O)[C@@]1(C)C(=O)[C@H](O)C3=C(C)[C@@H](OC(=O)[C@H](O)[C@@H](NC(=O)OC(C)(C)C)c4ccccc4)C[C@@](O)([C@@H](OC(=O)c4ccccc4)[C@H]21)C3(C)C [DOCETAXEL]
OUTPUT: 9.07

INPUT: Data request, read-out pIC50, for O=C(NOCC1CC1)c1ccc(F)c(F)c1Nc1ccc(I)cc1Cl [CI-1040]
OUTPUT: 5.41

INPUT: // pIC50 lookup, key: COc1cc(F)c(F)c(Nc2ccc(I)cc2F)c1NS(=O)(=O)C1(CC(O)CO)CC1 (configuration not stated)
OUTPUT: 5.59

INPUT: Looking for the measured pIC50 of C=CCNC1=C2C[C@@H](C)C[C@H](OC)[C@H](O)[C@@H](C)/C=C(\C)[C@H](OC(N)=O)[C@@H](OC)/C=C\C=C(/C)C(=O)NC(=CC1=O)C2=O [TANESPIMYCIN] , can you help?
OUTPUT: 6.00

INPUT: Please look up its pIC50: COc1ccc(-c2ccc3c(N4CCOC[C@@H]4C)nc(N4CCOC[C@@H]4C)nc3n2)cc1CO [AZD-8055]
OUTPUT: 5.89

INPUT: What measured pIC50 goes with COC(=O)CNC(=O)C(=O)OC ?
OUTPUT: 3.17
